# study_target: FP receptors (Swiss 3T3 cells expressing FP receptors) (Mus musculus)
# Construct: endogenous in cells; host or cells: Swiss 3T3 cells
# Sequence (P43117 whole entry): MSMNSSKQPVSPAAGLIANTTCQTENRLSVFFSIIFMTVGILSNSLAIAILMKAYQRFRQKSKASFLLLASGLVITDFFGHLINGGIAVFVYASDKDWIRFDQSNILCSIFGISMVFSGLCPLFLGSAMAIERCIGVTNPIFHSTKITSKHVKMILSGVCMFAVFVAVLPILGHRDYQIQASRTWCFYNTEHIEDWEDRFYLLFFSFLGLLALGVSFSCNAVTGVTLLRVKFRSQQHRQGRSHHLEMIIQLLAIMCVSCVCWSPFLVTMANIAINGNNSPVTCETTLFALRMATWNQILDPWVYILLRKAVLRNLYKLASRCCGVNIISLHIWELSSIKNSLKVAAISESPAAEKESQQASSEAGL
# measurement_protocol: FP receptor-mediated phosphoinositide turnover assay
# Type: cell-based
# cond: Swiss-3T3, 1 h; Table 1; efficacy relative to standard full agonist (100%); read-out: FP functional (%) agonistic activity
observed_property: Emax (%)

O=C(O)CCC/C=C\C[C@@H]1[C@@H](OC[C@@H](O)COc2cccc(Cl)c2)[C@H](O)C[C@@H]1O [Compound 65]
91
O=C(O)CCC/C=C\C[C@H]1CC[C@@H](O)[C@@H]1/C=C/[C@@H](O)COc1cccc(Cl)c1 [Compound 6]
100
O=C(O)CCC/C=C\C[C@@H]1[C@@H](/C=C/[C@@H](F)COc2cccc(C(F)(F)F)c2)[C@H](O)C[C@@H]1O [Compound 75]
83
O=C(O)CCC/C=C\C[C@H]1CC[C@@H](O)[C@@H]1CC[C@@H](O)CCc1cccc(Cl)c1 [Compound 8]
84
O=C(O)CC/C=C\CC[C@H]1[C@@H](O)CO[C@@H]1/C=C/[C@H](O)COc1cccc(C(F)(F)F)c1 [Compound 51]
61

(1) O=C(O)CCC/C=C\C[C@@H]1[C@@H](/C=C/[C@H](F)COc2ccccc2)[C@H](O)C[C@@H]1O [Compound 60]
(2) O=C(O)CCC/C=C\C[C@@H]1[C@@H](CC[C@@H](F)COc2cccc(Cl)c2)[C@H](O)C[C@@H]1O [Compound 17]
Prompt: Name the one with the greater Emax value, either 1 or 2 as given. Bench note: the answer is the label of the chosen record.
Response: 1
